molecular target: fMet-Leu-Phe receptor 1/2 (Homo sapiens) (UniProt P21462+P25090); assay: Agonist activity at FPR1/FPR2 in human neutrophils assessed as induction of Ca2+ mobilization relative to fMLF; assay type: functional
Sequence (P21462 whole entry, looked up): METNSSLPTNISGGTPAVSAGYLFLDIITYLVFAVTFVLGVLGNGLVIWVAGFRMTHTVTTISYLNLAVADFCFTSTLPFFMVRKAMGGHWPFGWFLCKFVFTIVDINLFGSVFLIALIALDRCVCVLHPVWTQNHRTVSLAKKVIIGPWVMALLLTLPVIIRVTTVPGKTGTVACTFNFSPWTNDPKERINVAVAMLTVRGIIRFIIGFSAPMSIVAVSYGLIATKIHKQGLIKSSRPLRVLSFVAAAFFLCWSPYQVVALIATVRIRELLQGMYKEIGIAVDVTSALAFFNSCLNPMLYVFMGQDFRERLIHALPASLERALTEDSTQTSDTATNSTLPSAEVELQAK
Sequence (P25090 whole entry, looked up): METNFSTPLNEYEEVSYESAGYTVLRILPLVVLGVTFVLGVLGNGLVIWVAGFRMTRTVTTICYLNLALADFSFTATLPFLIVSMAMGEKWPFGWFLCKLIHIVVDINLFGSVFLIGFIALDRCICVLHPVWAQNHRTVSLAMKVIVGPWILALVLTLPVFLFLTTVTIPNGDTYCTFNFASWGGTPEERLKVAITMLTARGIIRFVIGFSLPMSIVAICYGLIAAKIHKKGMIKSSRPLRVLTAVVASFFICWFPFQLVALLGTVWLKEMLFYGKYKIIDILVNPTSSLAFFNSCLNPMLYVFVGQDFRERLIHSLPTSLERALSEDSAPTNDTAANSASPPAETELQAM
value-kind: Efficacy
Field: value (include unit after the number)

Take a look at these entries with their results.
COc1ccc(Nc2c(C(C)=O)c(C)nn(CC(=O)Nc3ccc(Br)cc3)c2=O)cc1 | 110%
Cc1cc(Cc2ccoc2)c(=O)n(CC(=O)Nc2ccc(Br)cc2)n1 | 125%
COc1cccc(Cc2cc(C(C)C)nn(CC(=O)Nc3ccc(Br)cc3)c2=O)c1 | 110%

Go through the items and report each one's Efficacy.
1. Cc1cc(Cc2ccsc2)c(=O)n(CC(=O)Nc2ccc(Br)cc2)n1
2. COc1ccc(-c2cc(C)nn(CC(=O)Nc3ccc(Br)cc3)c2=O)cc1

// result
["115%", "70%"]

====

target: fMet-Leu-Phe receptor (Homo sapiens); test: Agonist activity at FPR1 (unknown origin) transfected in human HL60 cells assessed as induction of Ca2+ mobilization
Sequence (P21462 whole entry): as the sequence (P21462 whole entry, looked up) above
Please respond with reported EC50 for every item in the list.

Take a look at these entries with their results.
Cc1cc(Cc2cccc3ccccc23)c(=O)n(CC(=O)Nc2ccc(Br)cc2)n1 | 13.8 µM
COc1ccc(Cc2cc(-c3ccc(OC)cc3)nn(CC(=O)Nc3ccc(Br)cc3)c2=O)cc1 | > 50 µM
COc1cccc(Cc2cc(-c3ccc(C)cc3)nn(CC(=O)Nc3ccc4c(c3)OCO4)c2=O)c1 | > 50 µM
COc1cccc(Cc2cc(-c3ccc(Cl)cc3)nn(CC(=O)Nc3ccc4c(c3)OCO4)c2=O)c1 | > 50 µM
COc1ccc(Cc2cc(-c3cccs3)nn(CC(=O)Nc3ccc(Br)cc3)c2=O)cc1 | > 50 µM

Go through the items and report each one's EC50.
1. Cc1cc(Cc2cccc(Br)c2)c(=O)n(CC(=O)Nc2ccc(Br)cc2)n1
2. COc1cc(Cc2cc(C)nn(CC(=O)Nc3ccc(Br)cc3)c2=O)cc(OC)c1
3. Cc1cc(Cc2ccccc2)c(=O)n(CC(=O)Nc2ccc(Br)cc2)n1
4. COc1cccc(Cc2cc(-c3ccc(C)cc3)nn(CC(=O)Nc3ccc(F)cc3)c2=O)c1

// result
1. > 50 µM
2. > 50 µM
3. 5.5 µM
4. > 50 µM

====

biological target: fMet-Leu-Phe receptor 1/2 (Homo sapiens) (UniProt P21462+P25090); test: Agonist activity at FPR1/FPR2 in human neutrophils assessed as induction of Ca2+ mobilization relative to fMLF; assay type: functional
Please assign FALSE whenever Efficacy is at or above 80%, and TRUE whenever it is below.

Cc1cc(Cc2cccnc2)c(=O)n(CC(=O)Nc2ccc(Br)cc2)n1 | FALSE

// query Quick check: Efficacy of Cc1cc(Cc2cccc(Cl)c2)c(=O)n(CC(=O)Nc2ccc(Br)cc2)n1 under 80%?
// result FALSE

// query Quick check: Efficacy of Cc1cc(Cc2ccccc2)c(=O)n(CC(=O)Nc2ccc3c(c2)OCO3)n1 under 80%?
// result TRUE

// query Quick check: Efficacy of COc1cccc(C(=O)Nc2cc(C)nn(CC(=O)Nc3ccc(Br)cc3)c2=O)c1 under 80%?
// result FALSE

// query Quick check: Efficacy of COc1cccc(Cc2cc(C3CCCCC3)nn(CC(=O)Nc3ccc(Br)cc3)c2=O)c1 under 80%?
// result TRUE
